Give Maximum mean fluorescence intensity for every item shown.
# TARGET_OF_ASSAY: T1, human MSLN protein endogenously expressed on OVCAR3 tumor cells (human, UniProt Q13421 296-598)
# T1 construct: whole, on cells; Endogenous target on OVCAR3 cells; kept apart from the recombinant full-length construct; also called mesothelin
# TEST: FACS on OVCAR3 cells

S009-F1.56.1 (antibody, human IgG1, kappa, V domains shown, human-murine chimeric antibody, human IgG1/kappa constant regions) VH: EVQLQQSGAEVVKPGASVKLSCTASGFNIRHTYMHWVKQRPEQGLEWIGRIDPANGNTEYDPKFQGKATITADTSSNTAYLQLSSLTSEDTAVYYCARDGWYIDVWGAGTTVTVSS VL: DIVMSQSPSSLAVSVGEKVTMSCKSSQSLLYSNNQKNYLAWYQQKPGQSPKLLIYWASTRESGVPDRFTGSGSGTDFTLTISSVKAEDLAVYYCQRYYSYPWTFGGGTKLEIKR    11700

Here's the next entry for you.
Exercise: I have this binder here, S009-F1.2.12 (antibody, human IgG1, kappa, V domains shown, human-murine chimeric antibody, human IgG1/kappa constant regions) VH: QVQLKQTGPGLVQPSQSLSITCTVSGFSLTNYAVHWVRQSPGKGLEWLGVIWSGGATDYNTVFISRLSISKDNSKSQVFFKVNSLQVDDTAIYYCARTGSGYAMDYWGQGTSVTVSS VL: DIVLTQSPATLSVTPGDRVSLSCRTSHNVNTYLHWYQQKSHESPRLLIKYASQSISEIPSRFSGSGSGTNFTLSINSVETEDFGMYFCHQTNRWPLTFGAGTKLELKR , and I need its recorded Maximum mean fluorescence intensity.
Solution: 9620
